Listed here are molecules together with their documented pIC50.
- Test system: MCF-7 cells
- method: Breast Cancer Cell Viability Assay (CellTiter-Glo)
- Assay type: cell-based
- measurementContext: Homo sapiens, MCF7, 120 h, 5 days of compound exposure, read-out: MCF7 viab IC50
pIC50: −log10 of the molar value.
assayReadout: pIC50

>>> endpointvalue("CC1=C(c2ccc3[nH]ncc3c2)C(c2ccc(OC[C@H](C)N3CC[C@@H](C)C3)cc2)Oc2ccc(O)cc21 (stereo partly shown)")
8.59
>>> endpointvalue("CC1=C(c2cc(O)c(F)c(F)c2)C(c2ccc(OC[C@H](C)N3CC[C@@H](C)C3)cn2)Oc2ccc(O)cc21 (stereo partly shown)")
8.89
>>> endpointvalue("C[C@]12CC[C@@H]3c4ccc(O)cc4C[C@@H](CCCCCCCCC[S+]([O-])CCCC(F)(F)C(F)(F)F)[C@H]3[C@@H]1CC[C@@H]2O (stereo partly shown) [fulvestrant, reference compound]")
9.25
>>> endpointvalue("CC1=C(c2cccc3[nH]ncc23)C(c2ccc(OC[C@H](C)N3CC[C@@H](C)C3)cc2)Oc2ccc(O)cc21 (stereo partly shown)")
9.05
>>> endpointvalue("CC1=C(c2ccc(O)cc2F)C(c2ccc(OC[C@H](C)N3CC[C@@H](C)C3)cn2)Oc2ccc(O)cc21 (stereo partly shown)")
9.13
>>> endpointvalue("CC1=C(c2ccc3cn[nH]c3c2)C(c2ccc(OC[C@H](C)N3CC[C@@H](C)C3)cc2)Oc2ccc(O)cc21 (stereo partly shown)")
7.77
>>> endpointvalue("CC1=C(c2cccc(O)c2)C(c2ccc(OCCN3CCCC3)nc2)Oc2ccc(O)cc21 (stereo not shown)")
9.74
>>> endpointvalue("CC1=C(c2cccc(O)c2)C(c2cnc(OCCN3CCCC3)cn2)Oc2ccc(O)cc21 (stereo not shown)")
9.44
>>> endpointvalue("CC1=C(c2cccc(O)c2)C(c2ccc(OC[C@H](C)N3CC[C@@H](C)C3)nc2)Oc2ccc(O)cc21 (stereo partly shown)")
9.89
>>> endpointvalue("CC1=C(c2cccc(O)c2)C(c2ccc(OC[C@H](C)N3CC[C@@H](C)C3)cc2)Oc2c1ccc1[nH]ncc21 (stereo partly shown)")
9.34
>>> endpointvalue("CC1=C(c2cccc(O)c2)C(c2ccc(OC[C@H](C)N3CC[C@@H](C)C3)cc2)Oc2ccc3[nH]ncc3c21 (stereo partly shown)")
9.08
>>> endpointvalue("CC1=C(c2cccc(O)c2)C(c2ccc(OC[C@H](C)N3CC[C@@H](C)C3)cn2)Oc2ccc(O)cc21 (stereo partly shown)")
8.91
>>> endpointvalue("CC1=C(c2ccc(O)c(F)c2)C(c2ccc(OC[C@H](C)N3CC[C@@H](C)C3)cn2)Oc2ccc(O)cc21 (stereo partly shown)")
8.99
>>> endpointvalue("CC1=C(c2cccc(O)c2)C(c2ccc(OCCN3CCCC3)cn2)Oc2ccc(O)cc21 (stereo not shown)")
8.15
>>> endpointvalue("CC1=C(c2ccc(O)cc2)C(c2ccc(OC[C@H](C)N3CC[C@@H](C)C3)cn2)Oc2ccc(O)cc21 (stereo partly shown)")
8.87
>>> endpointvalue("CC1=C(c2cccc(O)c2)C(c2cnc(OC[C@H](C)N3CC[C@@H](C)C3)cn2)Oc2ccc(O)cc21 (stereo partly shown)")
9.18

* * *

- testedOn: ER-α (Homo sapiens, UniProt P03372)
- Construct: MCF7 cells were trypsinized and washed twice; endogenous in cells; host or cells: MCF7 breast cancer cells
- Sequence (P03372 whole entry): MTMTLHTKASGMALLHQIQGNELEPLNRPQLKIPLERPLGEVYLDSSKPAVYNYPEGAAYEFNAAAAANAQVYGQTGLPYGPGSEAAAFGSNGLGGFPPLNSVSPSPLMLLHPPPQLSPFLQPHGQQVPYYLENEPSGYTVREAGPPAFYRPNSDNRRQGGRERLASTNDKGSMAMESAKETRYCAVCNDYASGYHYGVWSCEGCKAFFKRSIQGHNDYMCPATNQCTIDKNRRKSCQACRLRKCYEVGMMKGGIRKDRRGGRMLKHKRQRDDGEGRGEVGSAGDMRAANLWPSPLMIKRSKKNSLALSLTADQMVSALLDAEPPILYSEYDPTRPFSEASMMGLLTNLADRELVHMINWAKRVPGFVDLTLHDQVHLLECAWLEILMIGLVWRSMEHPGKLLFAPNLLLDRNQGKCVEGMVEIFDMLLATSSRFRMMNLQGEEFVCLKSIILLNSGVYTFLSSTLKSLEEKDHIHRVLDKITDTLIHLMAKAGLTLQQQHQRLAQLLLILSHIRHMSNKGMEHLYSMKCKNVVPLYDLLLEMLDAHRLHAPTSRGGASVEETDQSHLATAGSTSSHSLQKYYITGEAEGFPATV
- method: ER-α In Cell Western Assay
- Assay type: cell-based
- measurementContext: MCF7 cells, 4 hours post compound addition, SP1 anti-ER antibody; read-out: ICW (SP1) max response
# Emax values compiled below
assayReadout: Emax (%)

>>> endpointvalue("CC1=C(c2cccc3[nH]ncc23)C(c2ccc(OC[C@H](C)N3CC[C@@H](C)C3)cc2)Oc2ccc(O)cc21 (stereo partly shown)")
85.1
>>> endpointvalue("CC1=C(c2cccc(O)c2)C(c2ccc(OC[C@H](C)N3CC[C@@H](C)C3)nc2)Oc2ccc(O)cc21 (stereo partly shown)")
76.1
>>> endpointvalue("CC1=C(c2cccc(O)c2)C(c2ccc(OC[C@H](C)N3CC[C@@H](C)C3)cn2)Oc2ccc(O)cc21 (stereo partly shown)")
86.7
>>> endpointvalue("CC1=C(c2cccc(O)c2)C(c2cnc(OC[C@H](C)N3CC[C@@H](C)C3)cn2)Oc2ccc(O)cc21 (stereo partly shown)")
83.3
>>> endpointvalue("CC1=C(c2cccc(O)c2)C(c2ccc(OCCN3CCCC3)nc2)Oc2ccc(O)cc21 (stereo not shown)")
65.9
>>> endpointvalue("CC1=C(c2cccc(O)c2)C(c2ccc(OC[C@H](C)N3CC[C@@H](C)C3)cc2)Oc2c1ccc1[nH]ncc21 (stereo partly shown)")
79.5
>>> endpointvalue("CC1=C(c2cc(O)c(F)c(F)c2)C(c2ccc(OC[C@H](C)N3CC[C@@H](C)C3)cn2)Oc2ccc(O)cc21 (stereo partly shown)")
87.1

The measurements presented in this section are drawn from patent US10053451B2.
